Give measured melting point for each item. Keep answers brief.
State the answer as a number, implicitly in °C.

Qu. Given CCC(COCc1ccccc1C)Nc1nc(NC(C)=O)nc(C(C)(C)F)n1 (racemic) , state its recorded melting point.
Ans. 108

Qu. Given CCC(COCc1ccccc1)Nc1nc(N)nc(C(C)(C)F)n1 (stereo not shown) , state its recorded melting point.
Ans. 114

Qu. Given CCC(COCc1cccc(Cl)c1)Nc1nc(N)nc(C(C)(C)F)n1 (stereo not shown) , state its recorded melting point.
Ans. 104

Qu. Given CCc1nc(N)nc(NC(CC)COCc2ccc(F)cc2)n1 (racemic) , state its recorded melting point.
Ans. 96
